Biological target: huPD-L1 (Homo sapiens, UniProt Q9NZQ7)
Sequence (Q9NZQ7 19-290): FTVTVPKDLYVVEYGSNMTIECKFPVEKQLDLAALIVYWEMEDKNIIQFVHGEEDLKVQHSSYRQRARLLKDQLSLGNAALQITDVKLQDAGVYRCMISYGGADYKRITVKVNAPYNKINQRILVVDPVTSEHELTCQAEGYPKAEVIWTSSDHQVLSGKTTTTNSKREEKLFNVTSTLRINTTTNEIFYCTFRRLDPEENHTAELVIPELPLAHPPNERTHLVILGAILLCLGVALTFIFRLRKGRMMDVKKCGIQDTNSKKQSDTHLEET
Assay: Flow binding to CHO cells stably expressing PD-L1
Parameters: huCTLA4 and huPD-L1, full-length mammalian surface expression constructs were generated; expressed in transfected cells; host or cells: CHO cells, lentiviral transduction, sorted to >98% purity
Settings: Table E19; MFI at 33.3 nM relative to WT CD80 ECD-Fc (Abcam)
Returns one of Criterion met or Criterion not met; Criterion met when PD-L1 Fold change to WT CD80 is >= 50 fold.

Below are worked cases with known answers.
* M47L (protein) VIHVTKEVKEVATLSCGHNVSVEELAQTRIYWQKEKKMVLTMMSGDLNIWPEYKNRTIFDITNNLSIVILALRPSDEGTYECVVLKYEKDAFKREHLAEVTLSVKAD | Criterion not met
* E35D/D46V/M47L/L85Q (protein) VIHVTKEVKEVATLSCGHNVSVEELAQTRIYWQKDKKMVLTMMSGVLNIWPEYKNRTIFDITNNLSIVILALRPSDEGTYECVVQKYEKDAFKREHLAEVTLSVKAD | Criterion met

## Input Reported PD-L1 Fold change to WT CD80 reaches at least 50 fold for E35D/D46V/M47V/N48K/V68M (protein) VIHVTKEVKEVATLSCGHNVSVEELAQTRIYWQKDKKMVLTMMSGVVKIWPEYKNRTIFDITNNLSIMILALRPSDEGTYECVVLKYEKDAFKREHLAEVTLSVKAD ?
## Output Criterion met

## Input Reported PD-L1 Fold change to WT CD80 reaches at least 50 fold for D46V/M47L/L85Q (protein) VIHVTKEVKEVATLSCGHNVSVEELAQTRIYWQKEKKMVLTMMSGVLNIWPEYKNRTIFDITNNLSIVILALRPSDEGTYECVVQKYEKDAFKREHLAEVTLSVKAD ?
## Output Criterion not met

## Input Reported PD-L1 Fold change to WT CD80 reaches at least 50 fold for E35D/M47V/N48K/V68M/L85Q (protein) VIHVTKEVKEVATLSCGHNVSVEELAQTRIYWQKDKKMVLTMMSGDVKIWPEYKNRTIFDITNNLSIMILALRPSDEGTYECVVQKYEKDAFKREHLAEVTLSVKAD ?
## Output Criterion met

## Input Reported PD-L1 Fold change to WT CD80 reaches at least 50 fold for M47V (protein) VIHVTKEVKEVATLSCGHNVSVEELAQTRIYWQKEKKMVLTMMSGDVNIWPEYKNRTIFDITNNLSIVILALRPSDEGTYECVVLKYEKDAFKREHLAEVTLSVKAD ?
## Output Criterion not met

## Input Reported PD-L1 Fold change to WT CD80 reaches at least 50 fold for M47V/N48K/K89N (protein) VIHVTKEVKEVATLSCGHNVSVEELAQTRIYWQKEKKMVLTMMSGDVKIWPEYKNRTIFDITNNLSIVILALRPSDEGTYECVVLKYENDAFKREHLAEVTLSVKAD ?
## Output Criterion not met

These data points were gathered from patent US20220177587A1.
